B1: tRNA (parent)
chain: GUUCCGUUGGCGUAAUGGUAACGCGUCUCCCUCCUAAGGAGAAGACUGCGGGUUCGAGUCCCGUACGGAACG

Variants of: B1
assay.remarks: yeast fitness relative to wild type (ratio to wild type); higher = fitter; tRNA-Arg(CCU), competitive growth, 37 C, YPD
Variants at the floor of the assay were thinned out.
Reported values of yeast fitness for individual entries
quantity.kind: yeast fitness

INSERT INTO results (variant_string, reading) VALUES
  ('C33U U35A', '≤ 0.5'),
  ('C11U G18A A37G', '≤ 0.5'),
  ('U2C G12A G18C C33U C55U', '≤ 0.5'),
  ('A20C A21U A42U', '≤ 0.5'),
  ('U13G C34U A37U', '≤ 0.5'),
  ('G10C A21C C66G', '≤ 0.5'),
  ('C4A C5U C24G A45U C66U', '≤ 0.5'),
  ('C11A U16C C31U A69U', '≤ 0.5'),
  ('U13G A40U', 0.945),
  ('U2A U47G C66U', '≤ 0.5'),
  ('U35A C66G', 0.599),
  ('G50A A65C', 0.887),
  ('C27G A45G C61U A69U', '≤ 0.5'),
  ('C27A A36G C49U A70U', '≤ 0.5'),
  ('A20U C31G', 0.865),
  ('C5A C11A C24U U26C C29U C31G', '≤ 0.5'),
  ('A14U A45C C46U C49G G63A A70U', 0.661),
  ('A43G C55U', 0.711),
  ('C30G C33U G58C U64A', 0.56);
